- protocolText: physchem
# logP per entry
// return a plain number; no unit text

Challenge: Name the reported logP value associated with the molecule CC(C)C(O)C(C)(C)CO (stereo not drawn) [2,2,4-trimethyl-1,3-pentanediol]
Response given: 2

Challenge: State the recorded logP for this entry: CC(O)C(C)O (stereo not drawn) [2,3-butanediol]
Response given: -0.36

Next, consider the following molecule.
Challenge: Tell me the measured logP of OCCCCO [1,4-butanediol] , please.
Response given: 0.5

====

- protocolText: logP value (octanol/water distribution)
- runParameters: octanol/water, logP value, octanol/water system
endpoint: logP
The reply should be a number, written without any unit.

Completed entries (count: 6):
Challenge: Look at this compound and give its reported logP. CCCCC(O)CO (stereo not drawn)
Response given: 0.5

Challenge: I'd like to know its logP. The compound in question is CCC(O)CO (stereo not drawn)
Response given: -0.32

Challenge: Suppose we examine the compound CC(C)(O)CCC(C)(C)O ; what logP value has been reported?
Response given: 1.53

Challenge: # logP lookup, item CC(CCO)CCO
Response given: -0.2

Challenge: Requested field: logP. Item: CCC(O)CCO (stereo not drawn)
Response given: -0.16

Challenge: Which logP value is on record for CC(C)(O)CO ?
Response given: 0.026

***
Challenge: Which logP is reported for this compound? CCCC(O)CO (stereo not drawn)
Response given: 0.01

Challenge: Entry CC(C)(CO)CO : reported logP = ?
Response given: -0.3

Challenge: Give the measured logP of CC(O)CCC(C)O (stereo not drawn) .
Response given: 0.62
